Origin of measurements: PubChem BioAssay AID1963862

# Test system: KRAS patient-derived spheroids with HUVEC/MSC, viability;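 note: spheroids exposed to agents for seven days before readout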
# Measurement Notes: Anticancer human tumor 941728-121-R-J1-PDC patient-derived lung adenocarcinoma cell line growth inhibition [KRAS2]
# Particulars: second compound 10 µM; first compound 0.316 µM; hits give low values
Values of viability, T/C strictly less than 2% map to Satisfied, and values of at least 2% map to Not satisfied.

viability, T/C strictly < 2% for this compound? Cn1nccc1Nc1nccc(-c2cc3c(s2)C(C)(C)N(CCN2CCOCC2)C3=O)n1 + COc1cc2nc(C)nc(NC(C)c3cc(N)cc(C(F)(F)F)c3)c2cc1OC1CCOC1
Not satisfied

For this compound, is viability, T/C lower than 2%? COc1cc(Nc2ncc3c(n2)-c2ccc(Cl)cc2C(c2c(F)cccc2OC)=NC3)ccc1C(=O)O + CC1OCC2(CCN(c3cnc(Sc4ccnc(N)c4Cl)c(N)n3)CC2)C1N
Not satisfied

Find out if reported viability, T/C for CCNC(=O)CC1N=C(c2ccc(Cl)cc2)c2cc(OC)ccc2-n2c(C)nnc21 (stereo not given) + CC1OCC2(CCN(c3cnc(Sc4ccnc(N)c4Cl)c(N)n3)CC2)C1N is less than 2%
Not satisfied

I wonder whether CCN1CCN(Cc2ccc(Nc3ncc(F)c(-c4cc(F)c5nc(C)n(C(C)C)c5c4)n3)nc2)CC1 + COc1cc2nc(C)nc(NC(C)c3cc(N)cc(C(F)(F)F)c3)c2cc1OC1CCOC1 has viability, T/C below 2%. Can you tell?
Satisfied

Quick check: does CCN1CCN(Cc2ccc(Nc3ncc(F)c(-c4cc(F)c5nc(C)n(C(C)C)c5c4)n3)nc2)CC1 + CNCc1ccccc1-c1csc(C(C)Nc2nc(C)nc3cc(OC)c(OC)cc23)c1 have viability, T/C under 2%?
Satisfied

is_below(viability, T/C, 2%) for CC1(C)CCC(CN2CCN(c3ccc(C(=O)NS(=O)(=O)c4ccc(NCC5CCOCC5)c([N+](=O)[O-])c4)c(Oc4cnc5[nH]ccc5c4)c3)CC2)=C(c2ccc(Cl)cc2)C1 + CNCc1ccccc1-c1csc(C(C)Nc2nc(C)nc3cc(OC)c(OC)cc23)c1 ?
Satisfied

Strictly below 2% in viability, T/C? COc1cc2nccc(Oc3ccc(NC(=O)C4(C(=O)Nc5ccc(F)cc5)CC4)cc3)c2cc1OC + COc1cc2nc(C)nc(NC(C)c3cc(N)cc(C(F)(F)F)c3)c2cc1OC1CCOC1
Satisfied

# strict comparison: is reported viability, T/C < 2%? input = CCNC(=O)CC1N=C(c2ccc(Cl)cc2)c2cc(OC)ccc2-n2c(C)nnc21 (stereo not given) + COc1cc2nc(C)nc(NC(C)c3cc(N)cc(C(F)(F)F)c3)c2cc1OC1CCOC1
Not satisfied

Given the entry CC1(C)CCC(CN2CCN(c3ccc(C(=O)NS(=O)(=O)c4ccc(NCC5CCOCC5)c([N+](=O)[O-])c4)c(Oc4cnc5[nH]ccc5c4)c3)CC2)=C(c2ccc(Cl)cc2)C1 + COc1cc2nc(C)nc(NC(C)c3cc(N)cc(C(F)(F)F)c3)c2cc1OC1CCOC1 , would its reported viability, T/C be below 2%?
Not satisfied

A record lists CC1OCC2(CCN(c3cnc(Sc4ccnc(N)c4Cl)c(N)n3)CC2)C1N (stereo not given) + C=CC(=O)N1CCN(c2nc(=O)n(-c3c(C)ccnc3C(C)C)c3nc(-c4c(O)cccc4F)c(F)cc23)C(C)C1 . Is its viability, T/C below 2%?
Not satisfied
